Assay: cell lysis of Cryptococcus neoformans, alamar blue – dry powder, set 3, mechanism study for C. neoformans antifungal project, dose response (AID 743298)
Settings: C. neoformans growth, alamar blue, 24 h; at 35 µM (top of the series)
Quantity Name: activity change, negative = inhibition (%)

> print(dat)
                                 smiles.text  reported.result
 1  Cc1ccc(C(C)C)c(OCCn2c(=S)[nH]c3ccc(Cl)cc32)c1             30.7
 2  Cc1ccc(C(C)C)c(OCCn2c(=S)[nH]c3c(C)cccc32)c1             59.5
 3  Cc1ccc(C(C)C)c(OCCn2c(=S)[nH]c3c(Cl)cccc32)c1            -22.6
 4         COc1ccccc1OCCn1c(=S)[nH]c2ccccc21            -19.4
 5  Cc1ccc(C(C)C)c(OCCn2c(=S)[nH]c3ccc(F)cc32)c1             44.9
 6  Cc1ccc(C(C)C)c(OCCn2c(=S)[nH]c3cc(F)ccc32)c1               55
 7  Cc1cccc(OCCn2c(=S)[nH]c3cc(C(F)(F)F)ccc32)c1               19
 8    Cc1ccc(C(C)C)c(OCCn2c(CO)nc3ccccc32)c1             8.72
 9        CSc1nc2ccccc2n1CCOc1cc(C)ccc1C(C)C            -25.9
10     Cc1ccc(C)c(OCCn2c(=S)[nH]c3ccccc32)c1             26.6
11       Cc1cccc(OCCn2c(=S)[nH]c3ccccc32)c1C             51.8

====

Assay: cell lysis of Cryptococcus neoformans, alamar blue – dry powder, set 3, mechanism study for C. neoformans antifungal project, dose response (AID 743298)
Conditions: C. neoformans growth, alamar blue, 24 h; at 35 µM (top of the series)
activity change, negative = inhibition reference
Quantity Name: activity change, negative = inhibition (%)

> print(dat)
                                smiles.text  reported.result
1  Cc1cccc(OCCn2c(=S)[nH]c3ccc(C(F)(F)F)cc32)c1             39.4
2     Cc1ccc(OCCn2c(=S)[nH]c3ccccc32)c(C)c1             12.9
3  Cc1ccc(C(C)C)c(OCCn2c(=S)[nH]c3c(F)cccc32)c1               16
4     COCc1nc2ccccc2n1CCOc1ccc(C(C)(C)C)cc1             5.49
5                c1ccc(OCCn2cnc3ccccc32)cc1             30.3
6  Cc1ccc(C(C)C)c(OCCn2c(=S)[nH]c3cccc(C)c32)c1             35.3
7      CC(C)c1ccccc1NCCn1c(=S)[nH]c2ccccc21             34.7
8         S=c1[nH]c2cc(Cl)ccc2n1CCOc1ccccc1             39.6

====

Tested on: C. neoformans growth, alamar blue, 24 h
Experiment: cell lysis of Cryptococcus neoformans, alamar blue – dry powder, set 3, mechanism study for C. neoformans antifungal project, dose response (AID 743298)
Activity calls are given as the source filed them.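 How the source made its calls: active means fitted AC50 at or below twice the top valid dose for that sample, signal falling; inconclusive means flat curve at 30 to 70 percent inhibition, or bad fit; inactive means the rest.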
Possible outcomes: YES for active, NO for inactive

> print(dat)
                                 smiles.text  assigned.category
 1          Cc1ccccc1OCCn1c(=S)[nH]c2ccccc21                 NO
 2         S=c1[nH]c2ccccc2n1CCOc1ccc(Cl)cc1                YES
 3           S=c1[nH]c2ccccc2n1CCOc1ccccc1Cl                YES
 4             S=c1[nH]c2ccccc2n1CCOc1ccccc1                YES
 5  Cc1ccc(C(C)C)c(OCCn2c(=S)[nH]c3cccc(F)c32)c1                YES
 6            Cc1ccc(OCCn2c(C)nc3ccccc32)cc1                YES
 7          Fc1ccccc1OCCn1c(=S)[nH]c2ccccc21                YES
 8       COc1cccc(OCCn2c(=S)[nH]c3ccccc32)c1                YES
 9               Cc1ccc(OCCn2cnc3ccccc32)cc1                YES
10      CCOc1ccc(OCCn2c(=S)[nH]c3ccccc32)cc1                YES
11        Cc1cccc(OCCn2c(=S)[nH]c3ccccc32)c1                YES
12        Cc1ccc(OCCn2c(=S)[nH]c3ccccc32)cc1                YES
13    CC(C)c1ccc(OCCn2c(=S)[nH]c3ccccc32)cc1                YES
14             O=c1[nH]c2ccccc2n1CCOc1ccccc1                YES
15       COc1ccc(OCCn2c(=S)[nH]c3ccccc32)cc1                YES
16        Fc1ccc2[nH]c(=S)n(CCOc3ccccc3)c2c1                YES
17  Cc1ccc(C(C)C)c(OCCn2c(=S)[nH]c3cccc(Cl)c32)c1                YES
18        Cc1ccc(OCCn2cnc3ccccc32)c(C(C)C)c1                 NO
19  CC(C)(C)c1ccc(OCCn2c(=S)[nH]c3ccccc32)cc1                YES
20      CC(C)c1ccccc1OCCn1c(=S)[nH]c2ccccc21                YES
21        Cc1cccc2[nH]c(=S)n(CCOc3ccccc3)c12                YES
22        Fc1cccc(OCCn2c(=S)[nH]c3ccccc32)c1                YES
23   CC(C)(C)c1ccccc1OCCn1c(=S)[nH]c2ccccc21                YES
24        CC(C)(C)c1ccc(OCCn2cnc3ccccc32)cc1                YES
25  Cc1ccc(OCCn2c(SCCO)nc3ccccc32)c(C(C)C)c1                YES
